Test system: female white mice
Experiment: animal or person
Details: Mus musculus, po, read-out: Muscle Tone ED50, Table III; oral, mice
Where a name gives a salt, the structure may show the parent alone.
A collection of compounds and their measured log10 of ED50
Answers are given as log10 of ED50 in mg/kg.

Need log10 of ED50 of OCc1ccc2c(c1)[C@]13C[C@H]2c2ccccc2[C@H]1CN(CC1CCCC1)C3 (relative stereo) [Example 86, Hydrochloride] , thanks.
1.78

Need log10 of ED50 of Clc1ccc2c(c1)[C@]13C[C@H]2c2ccccc2[C@H]1CN(CC1CCCC1)C3 (relative stereo) [Example 76, Hydrochloride] , thanks.
1.08

Need log10 of ED50 of C=CCC(O)c1ccc2c(c1)[C@]13C[C@H]2c2ccccc2[C@H]1CN(CC1CCCC1)C3 (stereo partly drawn) [Example 75, Hydrochloride] , thanks.
1.56

Need log10 of ED50 of Clc1ccc2c(c1)[C@H]1CN(CC3CCCC3)C[C@@]13C[C@@H]2c1ccc(Cl)cc13 (relative stereo) [Example 79, Hydrochloride] , thanks.
1.56

***
Need log10 of ED50 of Cc1ccc2c(c1)[C@]13C[C@H]2c2ccccc2[C@H]1CN(CC1CCCC1)C3 (relative stereo) , thanks.
1.70

Need log10 of ED50 of CNS(=O)(=O)c1ccc2c(c1)[C@]13C[C@H]2c2ccccc2[C@H]1CN(CC1CCCC1)C3 (relative stereo) [Example 88, Hydrochloride] , thanks.
2.30

====

System: female white mice
Assay: animal or person
Settings: Mus musculus, po, read-out: Muscle Tone ED50, Table 1; oral, mice
ED50 strictly less than 40 mg/kg = criterion met. Otherwise criterion not met.

Regarding c1ccc2c(c1)[C@@H]1C[C@@]3(CN(CC4CCCC4)C[C@H]23)c2ccccc21 (relative stereo) [Cyclopentylmethyl (free base)] , kindly confirm whether its ED50 is beneath 40 mg/kg.
criterion met

***
Regarding COCCN1C[C@@H]2c3ccccc3[C@@H]3C[C@@]2(C1)c1ccccc13 (relative stereo) , kindly confirm whether its ED50 is beneath 40 mg/kg.
criterion met

Regarding C1=CCC(CN2CC3c4ccccc4C4CC3(C2)c2ccccc24)=CC1 (stereo not drawn) , kindly confirm whether its ED50 is beneath 40 mg/kg.
criterion met

Regarding c1csc(CN2C[C@@H]3c4ccccc4[C@@H]4C[C@@]3(C2)c2ccccc24)c1 (relative stereo) , kindly confirm whether its ED50 is beneath 40 mg/kg.
criterion not met

Regarding C1=C[C@@H]2C[C@H]1C[C@H]2CN1C[C@@H]2c3ccccc3[C@@H]3C[C@@]2(C1)c1ccccc13 (relative stereo) , kindly confirm whether its ED50 is beneath 40 mg/kg.
criterion met

====

Tested on: female white mice
Assay: animal or person
Conditions: Mus musculus, po, read-out: Muscle Tone ED50, Table 1; oral, mice
Parameter Measured: ED50 (mg/kg)
Respond numerically; units are mg/kg and should not be typed.

Solved cases below.
Need ED50 of C1=C(CN2CC3c4ccccc4C4CC3(C2)c2ccccc24)CCC1 (centres unmarked) , thanks.
36

Need ED50 of c1ccc2c(c1)[C@@H]1C[C@@]3(CN(C4CCC4)C[C@H]23)c2ccccc21 (relative stereo) , thanks.
60

Need ED50 of c1ccc2c(c1)C1CC3(CN(CCC4CCCC4)CC23)c2ccccc21 (centres unmarked) , thanks.
3.6

***
Need ED50 of c1ccc2c(c1)[C@@H]1C[C@@]3(CN(CC4CCCCCCC4)C[C@H]23)c2ccccc21 (relative stereo) , thanks.
21

Need ED50 of c1ccc2c(c1)[C@@H]1C[C@@]3(CN(C[C@@H]4C[C@H]5CC[C@@H]4C5)C[C@H]23)c2ccccc21 (relative stereo) , thanks.
12

Need ED50 of c1ccc2c(c1)[C@@H]1C[C@@]3(CN(CC4CCCO4)C[C@H]23)c2ccccc21 (some centres unmarked) , thanks.
20
